# EXPERIMENTAL_TARGET: Ribosomal protein S6 kinase alpha-4 (Homo sapiens);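 also: mean inhibition of MSK2, GSK PKIS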
# PROTOCOL_CONDITIONS: at 1 µM
QUANTITY_KIND: inhibition (%)
Write the value in % as a bare number.

The examples below pair each entry with its known result.
COMPOUND	MEASURED_RESULT
COC(=O)Nc1nc2ccc(Oc3ccc(NC(=O)Nc4cc(C(F)(F)F)ccc4F)cc3)cc2s1	2.86
CNC(=O)c1ncccc1Nc1nc(Nc2cc3c(cc2OC)CCCN3C(=O)CN(C)C)nc2[nH]ccc12	5.8

Entry CC1=C(C(=O)Nc2ccc3[nH]ncc3c2)C(c2ccc(F)cc2)N=C(c2ccc(C(F)(F)F)nc2)N1 (stereo not given) — recorded inhibition = 14.9

Entry `N#Cc1cccc(Nc2ncc(-c3ccccc3)o2)c1` — recorded inhibition = 2.71

Entry `COc1ccc(Nc2ncc(-c3ccccc3)o2)cc1OC` — recorded inhibition = 4.59

Entry `O=C1Nc2ccccc2/C1=C1\CCc2cc(O)ccc21` — recorded inhibition = 56.7

Entry `COc1ccc(-c2nn3ncccc3c2-c2ccnc(Nc3ccc(F)c(F)c3)n2)cc1` — recorded inhibition = 4.5

Entry `COc1cc(N2CCN(C(C)C)CC2)ccc1Nc1nc(Nc2cccc(F)c2C(=O)O)c2cc[nH]c2n1` — recorded inhibition = 2.67

Entry `COc1ccc2ncn(-c3cc(O[C@H](C)c4ccccc4C(F)(F)F)c(C(N)=O)s3)c2c1` — recorded inhibition = 2.33

Entry `CS(=O)(=O)CCNCc1ccc(-c2ccc3ncnc(Nc4ccc(OCc5cccc(C(F)(F)F)c5)cc4)c3c2)o1` — recorded inhibition = 2.03
